study.target: D2 receptor (Rattus norvegicus, UniProt P61169)
Sequence (P61169 whole entry): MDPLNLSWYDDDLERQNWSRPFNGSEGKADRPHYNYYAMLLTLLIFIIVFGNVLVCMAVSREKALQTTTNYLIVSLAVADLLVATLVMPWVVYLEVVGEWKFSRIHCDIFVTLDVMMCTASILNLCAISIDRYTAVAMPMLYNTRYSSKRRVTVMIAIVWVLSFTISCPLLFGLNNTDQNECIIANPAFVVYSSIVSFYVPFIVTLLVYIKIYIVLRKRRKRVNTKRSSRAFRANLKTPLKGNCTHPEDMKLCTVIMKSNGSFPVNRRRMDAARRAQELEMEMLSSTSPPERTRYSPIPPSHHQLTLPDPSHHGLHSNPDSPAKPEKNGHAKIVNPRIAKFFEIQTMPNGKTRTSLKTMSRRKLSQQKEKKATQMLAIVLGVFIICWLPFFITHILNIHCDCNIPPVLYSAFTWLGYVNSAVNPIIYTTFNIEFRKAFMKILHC
run.description: biochemical
pKi: −log10 of the molar value.
observation.type: pKi

// solved cases for pKi follow
Cc1cc(CN2CCCCC2)ccc1OCCCN1CCN(c2cccc3sccc23)CC1 [Compound 3j]; 6.86
COc1cc(CN2CCCC2)ccc1OCCCN1CCN(c2cccc3sccc23)CC1 [Compound 3g]; 7.00

1 = COc1cc(CN2CCCCC2)ccc1OCCCN1CCN(c2cccc3sccc23)CC1 [Compound 3p]
2 = c1cc(N2CCN(CCCOc3ccc(CN4CCCC4)cc3)CC2)c2ccsc2c1 [Compound 3i]
3 = c1cc(N2CCN(CCCOc3ccc(CN4CCOCC4)cc3)CC2)c2ccsc2c1 [Compound 3w]
Give the ascending ranking of the items by reported pKi. Please respond by ranking the labels in the order requested.
1, 2, 3
(1: 6.84, 2: 7.04, 3: 7.76)

a = Clc1cc(OCCCN2CCN(c3cccc4sccc34)CC2)ccc1CN1CCCC1 [Compound 3f]
b = Fc1cc(CN2CCCCC2)ccc1OCCCN1CCN(c2cccc3sccc23)CC1 [Compound 3l]
Hi there! Just curious which has the higher pKi between a and b . API: response body contains the label of the selected item.
a
(a: 6.92, b: 6.70)

---

study.target: 5-HT6 receptor (Homo sapiens, UniProt P50406)
Sequence (P50406 whole entry): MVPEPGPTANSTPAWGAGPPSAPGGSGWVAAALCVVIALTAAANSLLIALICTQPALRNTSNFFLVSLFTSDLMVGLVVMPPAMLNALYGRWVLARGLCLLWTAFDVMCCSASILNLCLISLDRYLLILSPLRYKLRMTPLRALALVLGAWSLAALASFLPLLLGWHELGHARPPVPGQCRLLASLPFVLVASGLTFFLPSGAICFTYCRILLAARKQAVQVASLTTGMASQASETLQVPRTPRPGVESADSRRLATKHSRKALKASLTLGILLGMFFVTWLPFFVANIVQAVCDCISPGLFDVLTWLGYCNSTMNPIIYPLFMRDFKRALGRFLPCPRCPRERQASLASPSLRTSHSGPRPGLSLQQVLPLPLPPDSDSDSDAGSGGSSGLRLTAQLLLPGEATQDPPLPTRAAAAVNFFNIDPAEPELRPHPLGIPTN
observation.type: IC50 (µM)
Answer in µM, number only, no unit symbol.

// recorded IC50 for c1cc(N2CCN(CCCOc3ccc(CN4CCOCC4)cc3)CC2)c2ccsc2c1 : 0.413

---

Reported Ki for target or system 5-HT6 receptor (Homo sapiens, UniProt P50406), by entry.
observation.type: Ki (nM)

Fc1cc(OCCCN2CCN(c3cccc4sccc34)CC2)ccc1CN1CCCC1; 354
Fc1cc(OCCCN2CCN(c3cccc4sccc34)CC2)ccc1CN1CCCCC1; 365
Clc1cc(OCCCN2CCN(c3cccc4sccc34)CC2)ccc1CN1CCCC1; 376
c1cc(N2CCN(CCCOc3ccc(CN4CCOCC4)cc3)CC2)c2ccsc2c1; 336
COc1cc(CN2CCCC2)ccc1OCCCN1CCN(c2cccc3sccc23)CC1; 462
Cc1cc(CN2CCCCC2)ccc1OCCCN1CCN(c2cccc3sccc23)CC1; 385
c1cc(N2CCN(CCCOc3ccc(CN4CCCC4)cc3)CC2)c2ccsc2c1; 384
COc1cc(CN2CCCCC2)ccc1OCCCN1CCN(c2cccc3sccc23)CC1; 416
Fc1cc(CN2CCCC2)ccc1OCCCN1CCN(c2cccc3sccc23)CC1; 383
Fc1cc(CN2CCCCC2)ccc1OCCCN1CCN(c2cccc3sccc23)CC1; 389

---

Data export: pKi values recorded with 5-HT2A receptor (Rattus norvegicus, UniProt P14842).
Sequence (P14842 whole entry): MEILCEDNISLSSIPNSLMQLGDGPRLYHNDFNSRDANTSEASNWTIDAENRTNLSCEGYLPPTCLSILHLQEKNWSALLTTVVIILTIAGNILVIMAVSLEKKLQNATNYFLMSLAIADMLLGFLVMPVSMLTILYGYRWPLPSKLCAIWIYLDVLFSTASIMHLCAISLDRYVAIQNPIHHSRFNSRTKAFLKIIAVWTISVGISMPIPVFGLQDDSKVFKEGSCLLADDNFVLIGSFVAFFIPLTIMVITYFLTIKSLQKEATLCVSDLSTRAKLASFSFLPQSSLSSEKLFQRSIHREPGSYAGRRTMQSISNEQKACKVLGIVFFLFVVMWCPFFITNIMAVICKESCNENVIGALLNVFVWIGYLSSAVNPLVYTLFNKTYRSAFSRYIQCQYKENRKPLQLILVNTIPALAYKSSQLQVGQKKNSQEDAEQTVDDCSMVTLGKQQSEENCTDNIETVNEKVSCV
pKi: −log10 of the molar value.
observation.type: pKi

Fc1cc(CN2CCCCC2)ccc1OCCCN1CCN(c2cccc3sccc23)CC1; 6.76
Clc1cc(OCCCN2CCN(c3cccc4sccc34)CC2)ccc1CN1CCCC1; 6.57
COc1cc(CN2CCCC2)ccc1OCCCN1CCN(c2cccc3sccc23)CC1; 6.89
Fc1cc(OCCCN2CCN(c3cccc4sccc34)CC2)ccc1CN1CCCC1; 6.58
c1cc(N2CCN(CCCOc3ccc(CN4CCCC4)cc3)CC2)c2ccsc2c1; 6.73

---

study.target: α1 receptor
conditions.used: read-out: Receptor affinity Ki ± SEM, α1; three experiments, mean ± SEM
observation.type: pKi
For clarity, pKi is expressed as the negative log10 of concentration in mol/L.

The molecule identified as c1cc(N2CCN(CCCOc3ccc(CN4CCOCC4)cc3)CC2)c2ccsc2c1 registered its pKi at 6.39

---

Sequence of the target: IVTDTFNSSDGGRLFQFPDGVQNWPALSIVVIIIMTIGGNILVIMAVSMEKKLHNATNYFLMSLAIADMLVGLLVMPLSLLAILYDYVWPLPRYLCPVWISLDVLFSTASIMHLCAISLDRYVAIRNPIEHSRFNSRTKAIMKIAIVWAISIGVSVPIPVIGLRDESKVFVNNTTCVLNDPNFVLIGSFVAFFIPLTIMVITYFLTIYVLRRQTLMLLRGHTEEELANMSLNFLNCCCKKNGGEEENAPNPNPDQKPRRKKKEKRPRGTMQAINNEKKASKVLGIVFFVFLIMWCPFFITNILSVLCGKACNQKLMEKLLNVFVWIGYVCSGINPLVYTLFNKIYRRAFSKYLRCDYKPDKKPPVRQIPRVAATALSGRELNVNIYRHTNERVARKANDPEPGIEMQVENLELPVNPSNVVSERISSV
observation.type: Ki (nM)
Numbers only here, please. The scale is nM.

Summary for this compound, c1cc(N2CCN(CCCOc3ccc(CN4CCOCC4)cc3)CC2)c2ccsc2c1 : Ki is 572

---

Target chain: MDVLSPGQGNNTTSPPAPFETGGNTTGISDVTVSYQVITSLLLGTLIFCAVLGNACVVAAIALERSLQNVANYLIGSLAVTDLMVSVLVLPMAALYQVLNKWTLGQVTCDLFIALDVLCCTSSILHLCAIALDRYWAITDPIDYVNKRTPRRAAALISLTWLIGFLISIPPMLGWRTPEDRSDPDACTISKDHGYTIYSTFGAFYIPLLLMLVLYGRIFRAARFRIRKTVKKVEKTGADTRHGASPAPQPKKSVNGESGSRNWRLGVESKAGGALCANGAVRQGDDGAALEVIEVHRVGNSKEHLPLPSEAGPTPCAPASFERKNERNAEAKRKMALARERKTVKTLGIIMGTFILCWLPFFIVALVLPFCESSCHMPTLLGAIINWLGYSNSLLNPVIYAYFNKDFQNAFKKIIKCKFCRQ
observation.type: pIC50
FYI, pIC50 means -log10 of a concentration in mol per litre.

The compound c1cc(N2CCN(CCCOc3ccc(CN4CCOCC4)cc3)CC2)c2ccsc2c1 [Compound 3w] showed pIC50 equal to 6.66

---

pKi: −log10 of the molar value.
Form: system (5-HT2A receptor (Rattus norvegicus, UniProt P14842)), quantity (pKi), values below.
observation.type: pKi

Previously resolved entries follow.
Fc1cc(CN2CCCC2)ccc1OCCCN1CCN(c2cccc3sccc23)CC1; 6.59
Fc1cc(OCCCN2CCN(c3cccc4sccc34)CC2)ccc1CN1CCCCC1; 6.84

1 = COc1cc(CN2CCCCC2)ccc1OCCCN1CCN(c2cccc3sccc23)CC1
2 = Cc1cc(CN2CCCCC2)ccc1OCCCN1CCN(c2cccc3sccc23)CC1
For the two items 1 and 2 , which reports the higher pKi value? In your reply, give the label of the chosen option.
1
(1: 6.70, 2: 6.49)

---

Values of Ki reported for H3 receptor (Rattus norvegicus) appear below.
observation.type: Ki (nM)

Examples with their reported Ki follow.
Clc1cc(OCCCN2CCN(c3cccc4sccc34)CC2)ccc1CN1CCCC1; 75.3
c1cc(N2CCN(CCCOc3ccc(CN4CCCC4)cc3)CC2)c2ccsc2c1; 53
Fc1cc(OCCCN2CCN(c3cccc4sccc34)CC2)ccc1CN1CCCCC1; 81.5
Fc1cc(OCCCN2CCN(c3cccc4sccc34)CC2)ccc1CN1CCCC1; 54.4

A = Cc1cc(CN2CCCCC2)ccc1OCCCN1CCN(c2cccc3sccc23)CC1
B = c1cc(N2CCN(CCCOc3ccc(CN4CCOCC4)cc3)CC2)c2ccsc2c1
Between A and B , which one shows the smaller Ki number? Reply briefly: the label of your chosen item.
B
(B: 12.1 nM, A: 85 nM)

1 = COc1cc(CN2CCCC2)ccc1OCCCN1CCN(c2cccc3sccc23)CC1
2 = Fc1cc(CN2CCCC2)ccc1OCCCN1CCN(c2cccc3sccc23)CC1
When 1 and 2 are compared, which has the higher number for Ki? To answer, give the label that identifies your chosen option.
2
(2: 92.9 nM, 1: 62.5 nM)

---

Protein target, amino acids: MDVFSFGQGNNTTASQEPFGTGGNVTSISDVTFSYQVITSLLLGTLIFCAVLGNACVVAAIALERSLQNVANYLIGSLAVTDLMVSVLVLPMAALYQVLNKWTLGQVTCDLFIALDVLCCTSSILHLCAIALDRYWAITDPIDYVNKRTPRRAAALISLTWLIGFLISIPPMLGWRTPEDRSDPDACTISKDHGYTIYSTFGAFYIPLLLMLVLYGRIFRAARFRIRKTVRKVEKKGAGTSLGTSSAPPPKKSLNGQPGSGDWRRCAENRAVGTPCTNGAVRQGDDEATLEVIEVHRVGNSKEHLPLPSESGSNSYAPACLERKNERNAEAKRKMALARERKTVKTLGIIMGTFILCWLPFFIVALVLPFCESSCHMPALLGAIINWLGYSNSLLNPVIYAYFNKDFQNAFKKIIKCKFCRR
pKi: −log10 of the molar value.
observation.type: pKi

Record excerpt, results attached:
c1cc(N2CCN(CCCOc3ccc(CN4CCOCC4)cc3)CC2)c2ccsc2c1; 7.78
Cc1cc(CN2CCCCC2)ccc1OCCCN1CCN(c2cccc3sccc23)CC1; 6.52
Clc1cc(OCCCN2CCN(c3cccc4sccc34)CC2)ccc1CN1CCCC1; 6.73
Fc1cc(OCCCN2CCN(c3cccc4sccc34)CC2)ccc1CN1CCCCC1; 6.67
Fc1cc(CN2CCCC2)ccc1OCCCN1CCN(c2cccc3sccc23)CC1; 6.81

I = Fc1cc(OCCCN2CCN(c3cccc4sccc34)CC2)ccc1CN1CCCC1
II = Fc1cc(CN2CCCCC2)ccc1OCCCN1CCN(c2cccc3sccc23)CC1
Which shows the larger pKi value: I or II ? Returns: label corresponding to the selected item.
I
(I: 6.84, II: 6.54)

Data credit: paper PMC9031908
